Data credit: patent US20030207813A1

- Tested on: HIV-1 strain 89-959
- experimental-protocol: Acute infectivity assay in PHA-activated donor lymphocytes, isolate 89-959
- Type: cell-based
- measurement-parameters: Human immunodeficiency virus 1, Lymphocyte, Table 3, footnote marks show values of the same experiment, read-out: Virus Isolate (EC50 ng/mL) 89-959
Could you please report measured EC50 for the items listed next?
Just the number please, in ng/mL, no unit attached.

Would you mind telling me what EC50 value was observed for CC(C)(C)NC(=O)[C@@H]1CC2CCCC[C@@H]2CN1C[C@@H](O)[C@H](Cc1ccccc1)NC(=O)[C@H](CC(N)=O)NC(=O)c1ccc2ccccc2n1 (stereo in doubt) ? 4

Would you mind telling me what EC50 value was observed for "CC(C)CN(C[C@@H](O)[C@H](Cc1ccccc1)NC(=O)[C@H](CC(N)=O)NC(=O)c1ccc2ccccc2n1)S(=O)(=O)NC(C)(C)C" ? 12

Would you mind telling me what EC50 value was observed for CC(C)CN(C[C@@H](O)[C@H](Cc1ccccc1)NC(=O)[C@H](CC(N)=O)NC(=O)c1ccc2ccccc2n1)C(=O)NC(C)(C)C (relative stereo) ? 96

====

Could you please report measured EC50 for the items listed next?
- Test system: 89-959R (resistant strains selected from 89-959 against Example 2)
- experimental-protocol: Acute infectivity assay in PHA-activated donor lymphocytes, resistant isolate 89-959R
- Type: cell-based, HIV-1
- measurement-parameters: Human immunodeficiency virus 1, Lymphocyte, Table 3, experiments † and §, read-out: Virus Isolate (EC50 ng/mL) 89-959R
Just the number please, in ng/mL, no unit attached.

Would you mind telling me what EC50 value was observed for "CC(C)CN(C[C@@H](O)[C@H](Cc1ccccc1)NC(=O)[C@H](CC(N)=O)NC(=O)c1ccc2ccccc2n1)S(=O)(=O)NC(C)(C)C" ? 11

Would you mind telling me what EC50 value was observed for "CC(C)(C)NC(=O)[C@@H]1CN(Cc2cccnc2)CCN1C[C@@H](O)C[C@@H](Cc1ccccc1)C(=O)N[C@H]1c2ccccc2C[C@H]1O" ? 5

Would you mind telling me what EC50 value was observed for CC(C)CN(C[C@@H](O)[C@H](Cc1ccccc1)NC(=O)[C@H](CC(N)=O)NC(=O)c1ccc2ccccc2n1)C(=O)NC(C)(C)C (relative stereo) ? 5

Would you mind telling me what EC50 value was observed for "CNCC(=O)N[C@H](C(=O)N[C@@H](Cc1ccccc1)[C@H](O)CN(CCC(C)C)C(=O)NC(C)(C)C)C(C)(C)C" ? 395

Would you mind telling me what EC50 value was observed for CC(C)CCN(C[C@@H](O)[C@H](Cc1ccccc1)NC(=O)[C@H](CC(N)=O)NC(=O)c1ccc2ccccc2n1)C(=O)NC(C)(C)C (relative stereo) ? 12

====

- System: 89-959R (resistant strains selected from 89-959 against Example 2)
- experimental-protocol: Acute infectivity assay in PHA-activated donor lymphocytes, resistant isolate 89-959R
- Assay type: cell-based, HIV-1
- measurement-parameters: Human immunodeficiency virus 1, Lymphocyte, Table 3, (experiment ‡), read-out: Virus Isolate (EC50 ng/mL) 89-959R
Could you please report measured EC50 for the items listed next?
Just the number please, in ng/mL, no unit attached.

// lookup EC50 | system=89-959R (resistant strains selected from 89-959 against Example 2) | key= CC(C)(C)NC(=O)[C@@H]1CC2CCCC[C@@H]2CN1C[C@@H](O)[C@H](Cc1ccccc1)NC(=O)[C@H](CC(N)=O)NC(=O)c1ccc2ccccc2n1 (stereo in doubt) 6

// lookup EC50 | system=89-959R (resistant strains selected from 89-959 against Example 2) | key= CC(C)CN(C[C@@H](O)[C@H](Cc1ccccc1)NC(=O)[C@H](CC(N)=O)NC(=O)c1ccc2ccccc2n1)C(=O)NC(C)(C)C (relative stereo) 37

// lookup EC50 | system=89-959R (resistant strains selected from 89-959 against Example 2) | key= "CNCC(=O)N[C@H](C(=O)N[C@@H](Cc1ccccc1)[C@H](O)CN(CCC(C)C)C(=O)NC(C)(C)C)C(C)(C)C" 872

// lookup EC50 | system=89-959R (resistant strains selected from 89-959 against Example 2) | key= "CC(C)(C)NC(=O)[C@@H]1CN(Cc2cccnc2)CCN1C[C@@H](O)C[C@@H](Cc1ccccc1)C(=O)N[C@H]1c2ccccc2C[C@H]1O" 38

====

- System: NL4(R8Q,M46I)
- experimental-protocol: Viral isolate resistance assay per Markowitz et al., NL4(R8Q,M46I)
- Format: cell-based, HIV-1
- measurement-parameters: Human immunodeficiency virus 1, read-out: Virus Isolate (EC50 nM) NL4(R8O, M46I)
endpoint: EC50
Field: value (include unit after the number)

Would you mind telling me what EC50 value was observed for "CC(C)(C)NC(=O)[C@@H]1CN(Cc2cccnc2)CCN1C[C@@H](O)C[C@@H](Cc1ccccc1)C(=O)N[C@H]1c2ccccc2C[C@H]1O" ? 240 nM

Would you mind telling me what EC50 value was observed for "CC(C)c1nc(CN(C)C(=O)N[C@H](C(=O)N[C@@H](Cc2ccccc2)C[C@H](O)[C@H](Cc2ccccc2)NC(=O)OCc2cncs2)C(C)C)cs1" ? 240 nM

Would you mind telling me what EC50 value was observed for "Nc1cccc(CN2C(=O)N(Cc3cccc(N)c3)[C@H](Cc3ccccc3)[C@H](O)[C@@H](O)[C@H]2Cc2ccccc2)c1" ? 750 nM

====

- System: HIV-1 strain 89-959
- experimental-protocol: Acute infectivity assay in PHA-activated donor lymphocytes, isolate 89-959
- Format: cell-based
- measurement-parameters: Human immunodeficiency virus 1, Lymphocyte, Table 3, footnote marks show values of the same experiment, read-out: Virus Isolate (EC50 ng/mL) 89-959
endpoint: EC50 (ng/mL)
Just the number please, in ng/mL, no unit attached.

Would you mind telling me what EC50 value was observed for "CNCC(=O)N[C@H](C(=O)N[C@@H](Cc1ccccc1)[C@H](O)CN(CCC(C)C)C(=O)NC(C)(C)C)C(C)(C)C" ? 100

Would you mind telling me what EC50 value was observed for CC(C)CCN(C[C@@H](O)[C@H](Cc1ccccc1)NC(=O)[C@H](CC(N)=O)NC(=O)c1ccc2ccccc2n1)C(=O)NC(C)(C)C (relative stereo) ? 13

Would you mind telling me what EC50 value was observed for "CC(C)(C)NC(=O)[C@@H]1CN(Cc2cccnc2)CCN1C[C@@H](O)C[C@@H](Cc1ccccc1)C(=O)N[C@H]1c2ccccc2C[C@H]1O" ? 36

====

- System: RFRR (resistant strains selected from RF against Examples 1 and 2)
- experimental-protocol: CEM-T4 cell infection assay, reverse transcriptase readout, resistant isolate RFRR
- Assay type: cell-based, HIV-1
- measurement-parameters: Human immunodeficiency virus 1, 168 h, Table 6, CEM-T4 cells, 7 days, read-out: Virus Isolate (EC50 ng/mL) RFRR
Could you please report measured log10 EC50 for the items listed next?
# log10 transformed; quantity=EC50; unit=ng/mL

Would you mind telling me what log10 EC50 value was observed for "CC(C)(C)NC(=O)[C@@H]1CN(Cc2cccnc2)CCN1C[C@@H](O)C[C@@H](Cc1ccccc1)C(=O)N[C@H]1c2ccccc2C[C@H]1O" ? 2.99

Would you mind telling me what log10 EC50 value was observed for "CNCC(=O)N[C@H](C(=O)N[C@@H](Cc1ccccc1)[C@H](O)CN(CCC(C)C)C(=O)NC(C)(C)C)C(C)(C)C" ? 3.05

Would you mind telling me what log10 EC50 value was observed for CC(C)CN(C[C@@H](O)[C@H](Cc1ccccc1)NC(=O)[C@H](CC(N)=O)NC(=O)c1ccc2ccccc2n1)C(=O)NC(C)(C)C (relative stereo) ? 3.75

Would you mind telling me what log10 EC50 value was observed for "CC(C)CN(C[C@@H](O)[C@H](Cc1ccccc1)NC(=O)[C@@H](NC(=O)CN1CCCC1)C(C)(C)C)S(=O)(=O)c1ccc2c(c1)OCO2" ? 1.59

Would you mind telling me what log10 EC50 value was observed for "CNCC(=O)N[C@H](C(=O)N[C@@H](Cc1ccccc1)[C@H](O)CN(CC(C)C)S(=O)(=O)c1ccc2c(c1)OCO2)C(C)(C)C" ? 0.95

Would you mind telling me what log10 EC50 value was observed for CC(C)(C)NC(=O)[C@@H]1CC2CCCC[C@@H]2CN1C[C@@H](O)[C@H](Cc1ccccc1)NC(=O)[C@H](CC(N)=O)NC(=O)c1ccc2ccccc2n1 (stereo in doubt) ? 2.98

Would you mind telling me what log10 EC50 value was observed for "CC(C)CN(C[C@@H](O)[C@H](Cc1ccccc1)NC(=O)[C@H](C)CS(C)(=O)=O)S(=O)(=O)c1ccc2c(c1)OCO2" ? 1.32

====

- System: HIV-1RF
- experimental-protocol: CEM-T4 cell infection assay, reverse transcriptase readout, isolate RF
- Assay type: cell-based
- measurement-parameters: Human immunodeficiency virus 1, CEM-T4, 168 h, Table 4, CEM-T4 cells, 7 days, read-out: Virus Isolate (EC50 ng/mL) RF
Could you please report measured EC50 for the items listed next?
Just the number please, in ng/mL, no unit attached.

// lookup EC50 | system=HIV-1RF | key= COc1ccc(S(=O)(=O)N(CC(C)C)C[C@@H](O)[C@H](Cc2ccccc2)NC(=O)[C@H](C)CS(C)(=O)=O)cc1 (relative stereo) 10

// lookup EC50 | system=HIV-1RF | key= CC(C)(C)NC(=O)[C@@H]1CC2CCCC[C@@H]2CN1C[C@@H](O)[C@H](Cc1ccccc1)NC(=O)[C@H](CC(N)=O)NC(=O)c1ccc2ccccc2n1 (stereo in doubt) 12

// lookup EC50 | system=HIV-1RF | key= CC(C)CN(C[C@@H](O)[C@H](Cc1ccccc1)NC(=O)[C@H](CC(N)=O)NC(=O)c1ccc2ccccc2n1)C(=O)NC(C)(C)C (relative stereo) 30
